Values were extracted from ChEMBL document CHEMBL1152719.

Molecular target: Bifunctional epoxide hydrolase 2 (Homo sapiens)
Assay: Inhibition of soluble epoxide hydrolase by fluorescence assay
pIC50: −log10 of the molar value.
measurementLabel: pIC50

molecule: O=C(NCCc1ccc(OCc2ccccc2)cc1)NCCC12CC3CC(CC(C3)C1)C2
testResult: 7.82

molecule: O=C(CNC12CC3CC(CC(C3)C1)C2)Nc1cccc(OCCCN2CCOCC2)c1
testResult: 6.96

molecule: O=C(CC12CC3CC(CC(C3)C1)C2)C(=O)Nc1ccc(OCc2ccccc2)cc1
testResult: 5.95

molecule: O=C(Nc1ccc(OCc2ccccc2)cc1)C(O)CC12CC3CC(CC(C3)C1)C2 (centres undefined)
testResult: 6.57

molecule: O=C(CC1CCCCC1)Nc1cccc(OCCCN2CCOCC2)c1
testResult: 7.55

I. O=C(Nc1ccc(OCc2ccccc2)cc1)C(O)C12CC3CC(CC(C3)C1)C2 (centres undefined)
II. O=C(Cc1ccc(C(F)(F)F)cc1)Nc1cccc(OCCCN2CCOCC2)c1
III. S=C(Nc1cccc(OCCCN2CCOCC2)c1)NC12CC3CC(CC(C3)C1)C2
Order the records so the highest pIC50 appears first and the lowest last. Please reply with the labels ordered as requested. Many thanks.
III, II, I
(III: 7.66, II: 7.26, I: 6.51)

a. O=C(Nc1ccc(OCc2ccccc2)cc1)C(=O)C12CC3CC(CC(C3)C1)C2
b. O=C(Nc1cccc(OCCCN2CCOCC2)c1)C1CCCCC1
Please indicate which item has the smaller measured pIC50: a versus b Respond with the label that goes with your answer.
b

----------
Target: Bifunctional epoxide hydrolase 2 (Homo sapiens, UniProt P34913)
Sequence (P34913 whole entry): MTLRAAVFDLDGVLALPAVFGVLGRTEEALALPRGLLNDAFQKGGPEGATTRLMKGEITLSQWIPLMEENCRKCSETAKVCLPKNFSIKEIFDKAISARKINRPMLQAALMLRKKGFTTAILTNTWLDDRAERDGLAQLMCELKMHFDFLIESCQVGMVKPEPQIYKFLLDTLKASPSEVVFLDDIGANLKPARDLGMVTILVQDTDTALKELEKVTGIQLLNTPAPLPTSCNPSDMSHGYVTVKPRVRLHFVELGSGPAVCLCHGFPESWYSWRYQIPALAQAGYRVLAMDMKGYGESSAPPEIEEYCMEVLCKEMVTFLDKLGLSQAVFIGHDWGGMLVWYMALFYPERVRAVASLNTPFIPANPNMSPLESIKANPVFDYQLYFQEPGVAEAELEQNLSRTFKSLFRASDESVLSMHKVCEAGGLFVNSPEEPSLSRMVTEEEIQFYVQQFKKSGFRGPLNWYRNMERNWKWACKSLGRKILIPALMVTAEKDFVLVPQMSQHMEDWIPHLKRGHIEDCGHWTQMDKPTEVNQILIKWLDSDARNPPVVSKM
Experiment: Inhibition of soluble epoxide hydrolase by fluorescence assay
measurementLabel: IC50 (nM)

Recorded IC50, per entry:
compound: O=C(Nc1cccc(OCCCN2CCOCC2)c1)C(O)CC12CC3CC(CC(C3)C1)C2 (centres undefined)
IC50 [nM]: 23
--
compound: O=C(Nc1cccc(OCCCN2CCOCC2)c1)c1ccc(C(F)(F)F)cc1
IC50 [nM]: 93
--
compound: O=C(CCC12CC3CC(CC(C3)C1)C2)C(=O)Nc1cccc(OCCCN2CCOCC2)c1
IC50 [nM]: 48

a. O=C(Nc1ccc(C(F)(F)F)cc1)Nc1cccc(OCCCN2CCOCC2)c1
b. O=C(CC12CC3CC(CC(C3)C1)C2)Nc1cccc(OCCCN2CCOCC2)c1
c. O=C(CC12CC3CC(CC(C3)C1)C2)C(=O)Nc1cccc(OCCCN2CCOCC2)c1
d. O=C(NCCc1ccc(OCc2ccccc2)cc1)C(O)CCC12CC3CC(CC(C3)C1)C2 (centres undefined)
Order the records so the highest IC50 appears first and the lowest last. Please reply with the labels ordered as requested. Many thanks.
c, d, b, a
